test: NAL depletion under and without ultraviolet irradiation, HPLC with UV detection (281 nm); details: 2,000 μW/cm^2 for 1 hour then 25° C. 23 hours, test substance solution 1 mmol/L
VALUE_TYPE: NAL Depletion (%) under light irradiation
Give the value in % but do not write % after it.

Recorded NAL Depletion (%) under light irradiation, per entry:
Cc1ccc(C=C2C(=O)C3(C)CCC2C3(C)C)cc1 (racemic) | 0.0
CC(O)CCO (stereo not drawn) | 0.0

Would you mind telling me what NAL Depletion (%) under light irradiation value was observed for O=C([O-])Cc1ccccc1Nc1c(Cl)cccc1Cl.[Na+] ?
−4.1

Now this one: CC(CN1c2ccccc2Sc2ccccc21)N(C)C.Cl (racemic)
−438.6

Lookup CC(C)OC(=O)C(C)(C)Oc1ccc(C(=O)c2ccc(Cl)cc2)cc1
40.7

Cool, now CN(C)C1C(O)=C(C(N)=O)C(=O)C2(O)C(O)=C3C(=O)c4c(O)cccc4C(C)(O)C3CC12 (stereo not drawn)
27.6

----------
Let's look at some compounds and their measured NAL Depletion (%) without light irradiation.
conditions: 24 h, 0.25 mmol/L, pH 10.2
A number alone suffices; assume %.

Cc1ccc2oc(=O)ccc2c1 [compound 2, 6-Methylcoumarin] | 0.2
CCOc1ccc2c(C)cc(=O)oc2c1 [compound 29, 4-Methyl-7-ethoxycoumarin] | 1.0
CC(=O)c1ccc2ccccc2c1 [compound 37, Methyl β-naphthyl ketone] | 1.5
Nc1ccc(S(N)(=O)=O)cc1 [compound 27, Sulfanilamide] | 0.2

Now consider a different compound.
# get_value(readout='NAL Depletion (%) without light irradiation', item= CCCCCCCCCCCCCCCCO [compound 49, Cetyl alcohol] )
2.8

----------
assay: Average score of NAC and NAL depletion and phototoxicity or photoallergy determination, UV detection; conditions: average of NAC and NAL depletion
We begin with a simple list: items and their reported Average score (%) under light irradiation.
Reply with just the number (in %).

For orientation, consider the following solved cases.
CC1(C)SC2C(NC(=O)Cc3ccccc3)C(=O)N2C1C(=O)O (stereo not shown) | 2.2
CC(C)O | 1.0
[Na+].[O-][n+]1ccccc1[S-] | 61.0
CCO | 0.2
CC(O)CCO (stereo not shown) | 0.4
COc1c2ccoc2cc2oc(=O)ccc12 | 49.5

Now consider a different compound.
What measured Average score (%) under light irradiation goes with Cc1ccc(C=C2C(=O)C3(C)CCC2C3(C)C)cc1 (racemic) ?
2.1

----------
assay: NAC depletion under and without ultraviolet irradiation, HPLC with UV detection (281 nm)
Assign class by Difference in depletion (under light irradiation - without light irradiation) NAC (%): not lower than 90% means true (1); lower than 90% means false (0).

CC1(C)SC2C(NC(=O)Cc3ccccc3)C(=O)N2C1C(=O)O (stereo not shown) [compound 44] | false (0)

Read the next record carefully.
Determine whether this compound has Difference in depletion (under light irradiation - without light irradiation) NAC (%) no lower than 90%: CC(CN1c2ccccc2Sc2ccccc21)N(C)C.Cl (racemic) [compound 14]
false (0)

----------
# Average score (%) per record follows
experiment: Average score of NAC and NAL depletion and phototoxicity or photoallergy determination, fluorescence detection; details: without light irradiation, single compound
Just the number in %, nothing appended.

Examples from the recorded data:
CC(C)O | 0.3
CC(O)CO (racemic) | 0.0
[Na+].[O-][n+]1ccccc1[S-] | 4.2

Average score (%) lookup needed for CC(CN1c2ccccc2Sc2ccccc21)N(C)C.Cl (racemic) , thanks.
12.2

// same read-out, input: CCO
0.1

----------
experiment: NAC depletion under and without ultraviolet irradiation, HPLC with fluorescence detection (284 nm excitation, 333 nm fluorescence); conditions: under light irradiation, single compound
# NAC Depletion (%) per entry
Expressed in %, but write only the number.

O=C([O-])Cc1ccccc1Nc1c(Cl)cccc1Cl.[Na+] [No. 13, Diclofenac Na, reference compound] | 100.0

Looking for the measured NAC Depletion (%) of CC1(C)S[C@@H]2[C@H](NC(=O)Cc3ccccc3)C(=O)N2[C@H]1C(=O)O [No. 44, Penicillin G, reference compound] , can you help?
2.4

One more compound: COc1c2occc2cc2ccc(=O)oc12 [No. 3, 8-Methoxypsoralen, reference compound]
98.6

Follow-up item: C=C[C@H]1CN2CC[C@H]1C[C@H]2[C@H](O)c1ccnc2ccc(OC)cc12.Cl.O.O [No. 15, Quinine HCl (2H2O), reference compound]
99.8

Cool, now CN(C)[C@@H]1C(=O)C(C(N)=O)=C(O)[C@@]2(O)C(=O)C3=C(O)c4c(O)cccc4[C@@](C)(O)[C@H]3C[C@@H]12 [No. 36, Tetracycline, reference compound]
100.0

What about Cc1c([N+](=O)[O-])c(C)c([N+](=O)[O-])c(C(C)(C)C)c1[N+](=O)[O-] [No. 18, Musk xylene, reference compound] ?
88.9

----------
conditions: 24 h, 0.25 mmol/L, pH 8
# strict inequality: NAC Depletion (%) under light irradiation < 30% yields YES, everything else yields NO

CCOc1ccc2c(C)cc(=O)oc2c1 [compound 29, 4-Methyl-7-ethoxycoumarin] | NO

Find out if reported NAC Depletion (%) under light irradiation for Nc1ccc(S(N)(=O)=O)cc1 [compound 27, Sulfanilamide] is less than 30%
YES

Repeat with CC(=O)c1ccc2ccccc2c1 [compound 37, Methyl β-naphthyl ketone]
NO

And then Cc1ccc2oc(=O)ccc2c1 [compound 2, 6-Methylcoumarin] , what is it?
NO

What about CCCCCCCCCCCCCCCCO [compound 49, Cetyl alcohol] ?
YES

----------
Listed here are compounds together with their documented NAC Depletion (%) without light irradiation.
test: NAC depletion under and without ultraviolet irradiation, HPLC with UV detection (281 nm); conditions: 25° C. 24 hours light-shielded, test substance solution 1 mmol/L
# number only, unit % dropped from output

[Na+].[O-][n+]1ccccc1[S-] [compound 26] | 10.7
CC(O)CCO (stereo not drawn) [compound 46] | 0.0
C=CC1CN2CCC1CC2C(O)c1ccnc2ccc(OC)cc12.Cl.O.O (stereo not drawn) [compound 15] | 1.1
CC(C)O [compound 47] | 0.0
CC1(C)SC2C(NC(=O)Cc3ccccc3)C(=O)N2C1C(=O)O (stereo not drawn) [compound 44] | 1.4

State the recorded NAC Depletion (%) without light irradiation for this entry: CN(C)C1C(O)=C(C(N)=O)C(=O)C2(O)C(O)=C3C(=O)c4c(O)cccc4C(C)(O)C3CC12 (stereo not drawn) [compound 36]
−59.4

----------
details: 24 h, 0.25 mmol/L, pH 10.2
VALUE_TYPE: Difference in depletion (under light irradiation - without light irradiation) NAL (%)
Entry rule: numbers only, all in %.

Cc1ccc2oc(=O)ccc2c1 [compound 2, 6-Methylcoumarin] | 5.5
CCCCCCCCCCCCCCCCO [compound 49, Cetyl alcohol] | 3.3
Nc1ccc(S(N)(=O)=O)cc1 [compound 27, Sulfanilamide] | −0.2
CC(=O)c1ccc2ccccc2c1 [compound 37, Methyl β-naphthyl ketone] | 6.9

# evaluate next
Returns the measured Difference in depletion (under light irradiation - without light irradiation) NAL (%) for the input compound. Input: CCOc1ccc2c(C)cc(=O)oc2c1 [compound 29, 4-Methyl-7-ethoxycoumarin]
19.3

----------
Reported Difference in depletion (under light irradiation - without light irradiation) NAL (%) values follow for various compounds
assay: NAL depletion under and without ultraviolet irradiation, HPLC with UV detection (281 nm)
Show the value, then the unit it is measured in.

CC(C)OC(=O)C(C)(C)Oc1ccc(C(=O)c2ccc(Cl)cc2)cc1 | 40.7%

I am curious: what Difference in depletion (under light irradiation - without light irradiation) NAL (%) value has been reported for CC(O)CCO (centres unmarked) ?
0.0%

Okay, and Cc1ccc(C=C2C(=O)C3(C)CCC2C3(C)C)cc1 (racemic) ?
0.0%

// query: CC1(C)SC2C(NC(=O)Cc3ccccc3)C(=O)N2C1C(=O)O (centres unmarked)
−0.2%

And the next one, CN(C)C1C(O)=C(C(N)=O)C(=O)C2(O)C(O)=C3C(=O)c4c(O)cccc4C(C)(O)C3CC12 (centres unmarked) ?
22.5%

----------
assay: NAL depletion under and without ultraviolet irradiation, HPLC with fluorescence detection (284 nm excitation, 333 nm fluorescence); details: without light irradiation, single compound
VALUE_TYPE: NAL Depletion (%)
Reply numerically in %, unit not repeated.

These recorded examples may help you get a feel for the data.
C=CC1CN2CCC1CC2C(O)c1ccnc2ccc(OC)cc12.Cl.O.O (centres unmarked) [compound 15] | 0.0
CN(C)C1C(O)=C(C(N)=O)C(=O)C2(O)C(O)=C3C(=O)c4c(O)cccc4C(C)(O)C3CC12 (centres unmarked) [compound 36] | 3.0
CC(C)O [compound 47] | 0.0
CC(CN1c2ccccc2Sc2ccccc21)N(C)C.Cl (racemic) [compound 14] | 0.8

Quick one: NAL Depletion (%) for CC(O)CCO (centres unmarked) [compound 46] ?
0.1
